Target: purified human BChE (Homo sapiens, UniProt P06276)
Sequence (P06276 29-602): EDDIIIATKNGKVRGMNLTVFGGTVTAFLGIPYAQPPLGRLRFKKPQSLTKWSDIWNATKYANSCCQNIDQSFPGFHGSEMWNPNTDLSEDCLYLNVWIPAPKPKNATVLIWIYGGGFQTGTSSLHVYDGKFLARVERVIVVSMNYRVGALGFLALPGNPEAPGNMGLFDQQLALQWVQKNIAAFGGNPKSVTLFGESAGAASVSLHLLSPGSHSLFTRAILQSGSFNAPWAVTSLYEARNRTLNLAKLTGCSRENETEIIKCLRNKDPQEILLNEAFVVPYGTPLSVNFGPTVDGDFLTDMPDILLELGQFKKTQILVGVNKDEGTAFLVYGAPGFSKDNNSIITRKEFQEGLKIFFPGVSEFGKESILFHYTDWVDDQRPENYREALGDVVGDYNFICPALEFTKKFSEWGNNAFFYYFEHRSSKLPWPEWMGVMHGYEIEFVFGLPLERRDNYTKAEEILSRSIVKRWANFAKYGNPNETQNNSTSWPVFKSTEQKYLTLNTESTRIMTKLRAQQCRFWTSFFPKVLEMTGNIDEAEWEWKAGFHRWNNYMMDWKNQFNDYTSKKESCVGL
Experiment: Reversible inhibition of BChE, Ellman method, enzyme-inhibitor dissociation constants
Format: biochemical
Conditions: times higher preference for BChE over AChE
Experimental: As a source of BChE, a purified human BChE, and as AChE, a recombinant human AChE was used, both enzymes kindly provided by Dr. F. Nachon (Département de Toxicologie, Armed Forces Biomedical Research Institute, France). […] Enzyme activities were measured spectrophotometrically by the Ellman method at […] using 0.30 mM DTNB as thiol reagent, ATCh as substrate and water in 0.1 M phosphate buffer, pH 7.4. […] Measurements were done at 25 °C on a Tecan Infinite M200Pro plate reader (Austria). […]
The label depends only on SI, selective index Ki(AChE)/Ki(BChE): criterion met if it is at least 9, criterion not met if it is smaller.

>  <MOLECULE>
C=CC1C[N+]2(Cc3c(F)cccc3F)CCC1C[C@@H]2[C@@H](O)c1ccnc2ccccc12 (stereo partly shown)

>  <ASSIGNED CLASS>
criterion not met

$$$$
>  <MOLECULE>
C=CC1C[N+]2(Cc3c(F)cccc3C(F)(F)F)CCC1C[C@H]2[C@H](O)c1ccnc2ccccc12 (stereo partly shown)

>  <ASSIGNED CLASS>
criterion not met

$$$$
>  <MOLECULE>
C=CC1C[N+]2(Cc3cccc(OC(F)(F)F)c3)CCC1C[C@@H]2[C@@H](O)c1ccnc2ccccc12 (stereo partly shown)

>  <ASSIGNED CLASS>
criterion not met

$$$$
>  <MOLECULE>
C=CC1C[N+]2(Cc3cccc(F)c3F)CCC1C[C@@H]2[C@@H](O)c1ccnc2ccccc12 (stereo partly shown)

>  <ASSIGNED CLASS>
criterion not met

$$$$
>  <MOLECULE>
C=CC1C[N+]2(Cc3cc(F)cc(F)c3)CCC1C[C@@H]2[C@@H](O)c1ccnc2ccccc12 (stereo partly shown)

>  <ASSIGNED CLASS>
criterion not met

$$$$
>  <MOLECULE>
C=CC1C[N+]2(Cc3cccc(F)c3)CCC1C[C@H]2[C@H](O)c1ccnc2ccccc12 (stereo partly shown)

>  <ASSIGNED CLASS>
criterion met

$$$$
>  <MOLECULE>
C=CC1C[N+]2(Cc3cccc(F)c3)CCC1C[C@@H]2[C@@H](O)c1ccnc2ccccc12 (stereo partly shown)

>  <ASSIGNED CLASS>
criterion not met

$$$$
>  <MOLECULE>
CCC1C[N+]2(Cc3ccc(F)cc3)CCC1C[C@H]2[C@H](O)c1ccnc2ccccc12 (stereo partly shown)

>  <ASSIGNED CLASS>
criterion not met

$$$$
>  <MOLECULE>
C=CC1C[N+]2(Cc3ccc(F)c(F)c3)CCC1C[C@@H]2[C@@H](O)c1ccnc2ccccc12 (stereo partly shown)

>  <ASSIGNED CLASS>
criterion not met

$$$$
>  <MOLECULE>
C=CC1C[N+]2(Cc3cccc(C(F)(F)F)c3)CCC1C[C@@H]2[C@@H](O)c1ccnc2ccccc12 (stereo partly shown)

>  <ASSIGNED CLASS>
criterion met

$$$$
>  <MOLECULE>
CCC1CN2CCC1CC2C(O)c1ccnc2ccccc12 (stereo not shown) [DHCD, 10,11-dihydrocinchonidine]

>  <ASSIGNED CLASS>
criterion met

$$$$
>  <MOLECULE>
C=CC1C[N+]2(Cc3cc(F)cc(F)c3)CCC1C[C@H]2[C@H](O)c1ccnc2ccccc12 (stereo partly shown)

>  <ASSIGNED CLASS>
criterion met

$$$$
>  <MOLECULE>
C=CC1C[N+]2(Cc3ccc(Br)cc3F)CCC1C[C@@H]2[C@@H](O)c1ccnc2ccccc12 (stereo partly shown)

>  <ASSIGNED CLASS>
criterion not met

$$$$
>  <MOLECULE>
C=CC1C[N+]2(Cc3c(F)cccc3Cl)CCC1C[C@H]2[C@H](O)c1ccnc2ccccc12 (stereo partly shown)

>  <ASSIGNED CLASS>
criterion not met

$$$$
>  <MOLECULE>
CCC1C[N+]2(Cc3ccc(OC(F)(F)F)cc3)CCC1C[C@@H]2[C@@H](O)c1ccnc2ccccc12 (stereo partly shown)

>  <ASSIGNED CLASS>
criterion met

$$$$
>  <MOLECULE>
C=CC1C[N+]2(Cc3ccccc3)CCC1C[C@@H]2[C@@H](O)c1ccnc2ccccc12 (stereo partly shown)

>  <ASSIGNED CLASS>
criterion met

$$$$
>  <MOLECULE>
C=CC1C[N+]2(Cc3c(F)cccc3Cl)CCC1C[C@@H]2[C@@H](O)c1ccnc2ccccc12 (stereo partly shown)

>  <ASSIGNED CLASS>
criterion met

$$$$
>  <MOLECULE>
CCC1C[N+]2(Cc3ccccc3)CCC1C[C@@H]2[C@@H](O)c1ccnc2ccccc12 (stereo partly shown)

>  <ASSIGNED CLASS>
criterion met

$$$$
>  <MOLECULE>
CCC1C[N+]2(Cc3cccc(C(F)(F)F)c3)CCC1C[C@H]2[C@H](O)c1ccnc2ccccc12 (stereo partly shown)

>  <ASSIGNED CLASS>
criterion met

$$$$
>  <MOLECULE>
C=CC1C[N+]2(Cc3ccc(F)cc3F)CCC1C[C@@H]2[C@@H](O)c1ccnc2ccccc12 (stereo partly shown)

>  <ASSIGNED CLASS>
criterion not met

$$$$
>  <MOLECULE>
C=CC1C[N+]2(Cc3ccccc3F)CCC1C[C@@H]2[C@@H](O)c1ccnc2ccccc12 (stereo partly shown)

>  <ASSIGNED CLASS>
criterion met

$$$$
>  <MOLECULE>
C=CC1C[N+]2(Cc3cccc(C(F)(F)F)c3)CCC1C[C@H]2[C@H](O)c1ccnc2ccccc12 (stereo partly shown)

>  <ASSIGNED CLASS>
criterion met

$$$$
>  <MOLECULE>
CCC1C[N+]2(Cc3cccc(F)c3)CCC1C[C@H]2[C@H](O)c1ccnc2ccccc12 (stereo partly shown)

>  <ASSIGNED CLASS>
criterion met

$$$$
>  <MOLECULE>
C=CC1C[N+]2(Cc3ccc(OC(F)(F)F)cc3)CCC1C[C@H]2[C@H](O)c1ccnc2ccccc12 (stereo partly shown)

>  <ASSIGNED CLASS>
criterion not met

$$$$
>  <MOLECULE>
C=CC1C[N+]2(Cc3c(F)cccc3F)CCC1C[C@H]2[C@H](O)c1ccnc2ccccc12 (stereo partly shown)

>  <ASSIGNED CLASS>
criterion not met

$$$$
>  <MOLECULE>
CCC1C[N+]2(Cc3ccccc3)CCC1C[C@H]2[C@H](O)c1ccnc2ccccc12 (stereo partly shown)

>  <ASSIGNED CLASS>
criterion met

$$$$
>  <MOLECULE>
CCC1C[N+]2(Cc3cccc(OC(F)(F)F)c3)CCC1C[C@@H]2[C@@H](O)c1ccnc2ccccc12 (stereo partly shown)

>  <ASSIGNED CLASS>
criterion met

$$$$
>  <MOLECULE>
CCC1C[N+]2(Cc3cccc(OC(F)(F)F)c3)CCC1C[C@H]2[C@H](O)c1ccnc2ccccc12 (stereo partly shown)

>  <ASSIGNED CLASS>
criterion not met

$$$$
>  <MOLECULE>
CCC1C[N+]2(Cc3ccc(C(F)(F)F)cc3)CCC1C[C@H]2[C@H](O)c1ccnc2ccccc12 (stereo partly shown)

>  <ASSIGNED CLASS>
criterion not met

$$$$
>  <MOLECULE>
C=CC1C[N+]2(Cc3ccc(OC(F)(F)F)cc3)CCC1C[C@@H]2[C@@H](O)c1ccnc2ccccc12 (stereo partly shown)

>  <ASSIGNED CLASS>
criterion not met

$$$$
